Assay: RP TLC on non-impregnated control plates
Format: physicochemical
Details: Table S8, external group
Each record here notes measured CRP (Rf value from the non-impregnated RP plate, control).
measure: CRP (Rf value from the non-impregnated RP plate, control)

| compound | endpoint.result |
| --- | --- |
| CC[C@@H](C(N)=O)N1CCCC1=O | 0.92 |
| CO[C@H]1/C=C/O[C@@]2(C)Oc3c(C)c(O)c4c(O)c(c(/C=N/N5CCN(C)CC5)c(O)c4c3C2=O)NC(=O)/C(C)=C\C=C\[C@H](C)[C@H](O)[C@@H](C)[C@@H](O)[C@@H](C)[C@H](OC(C)=O)[C@@H]1C | 0.95 |
| O=C(c1ccccc1)c1ccc2n1CCC2C(=O)O (centres unmarked) | 0.96 |
| CN(C)CCC=C1c2ccccc2CCc2ccccc21 | 0.67 |
| CC[C@@H](CO)NCCN[C@@H](CC)CO | 0.97 |
| CC(=O)Nc1nnc(S(N)(=O)=O)s1 | 0.97 |
| CC(C)(C)NC[C@H](O)COc1nsnc1N1CCOCC1 | 0.97 |
| CCCCN1CCCCC1C(=O)Nc1c(C)cccc1C (centres unmarked) | 0.74 |
| Nc1ccc(O)c(C(=O)O)c1 | 0.99 |
| CC(N)C12CC3CC(CC(C3)C1)C2 (centres unmarked) | 0.95 |
| CCC(C)n1ncn(-c2ccc(N3CCN(c4ccc(OCC5COC(Cn6cncn6)(c6ccc(Cl)cc6Cl)O5)cc4)CC3)cc2)c1=O (centres unmarked) | 0.86 |
| CCOC(=O)C1=C(C)NC(C)=C(C(=O)OC)C1c1cccc([N+](=O)[O-])c1 (centres unmarked) | 0.86 |
| CCC1(c2ccccc2)C(=O)NCNC1=O | 0.93 |
| NC(=O)N1c2ccccc2CC(=O)c2ccccc21 [oxcarbamazepine] | 0.91 |

----------
Assay: HPLC on immobilized artificial membrane column (HPLCIAM)
Assay type: physicochemical
Settings: Table S9, external group
Everything with log kIAM lower than 0.2 is NO; everything else, including exactly 0.2, is YES.

| molecule | cat |
| --- | --- |
| CCN(CC)CCCC(C)Nc1ccnc2cc(Cl)ccc12 (stereo not drawn) | YES |
| CC(=O)CC(c1ccccc1)c1c(O)c2ccccc2oc1=O (stereo not drawn) | YES |
| CN(C)CCCN1c2ccccc2CCc2ccc(Cl)cc21 | YES |
| Nc1ccc(O)c(C(=O)O)c1 | NO |
| CC(N)C12CC3CC(CC(C3)C1)C2 (stereo not drawn) | YES |
| CC[C@@H](C(N)=O)N1CCCC1=O | YES |

----------
Target: bovine serum albumin (BSA) (Bos taurus)
Construct: purchased Sigma Aldrich
Sequence (P02769 25-607): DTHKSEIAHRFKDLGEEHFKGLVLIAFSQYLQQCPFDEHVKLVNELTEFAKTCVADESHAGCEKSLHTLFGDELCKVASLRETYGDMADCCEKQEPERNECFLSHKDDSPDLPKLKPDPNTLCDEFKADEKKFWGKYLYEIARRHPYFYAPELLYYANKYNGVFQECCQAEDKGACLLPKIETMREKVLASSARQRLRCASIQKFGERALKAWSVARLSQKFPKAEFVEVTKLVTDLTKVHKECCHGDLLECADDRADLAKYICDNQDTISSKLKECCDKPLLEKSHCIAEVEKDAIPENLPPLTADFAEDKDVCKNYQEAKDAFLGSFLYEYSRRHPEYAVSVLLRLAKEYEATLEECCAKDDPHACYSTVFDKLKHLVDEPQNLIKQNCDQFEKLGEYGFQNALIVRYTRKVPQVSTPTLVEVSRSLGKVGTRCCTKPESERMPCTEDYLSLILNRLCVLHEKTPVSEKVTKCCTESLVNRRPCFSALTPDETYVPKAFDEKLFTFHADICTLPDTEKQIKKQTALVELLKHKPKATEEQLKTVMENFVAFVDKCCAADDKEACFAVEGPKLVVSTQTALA
Test: NP TLC on plates impregnated with bovine serum albumin
Format: binding
Settings: Table S3, NP plate impregnated with 2 mg/mL BSA; pH 7.4 mobile phase
measure: NP (Rf, BSA-impregnated NP plate)

| molecule | endpoint.result |
| --- | --- |
| CN1C(=O)CC(=O)N(c2ccccc2)c2cc(Cl)ccc21 [clobazam] | 0.95 |
| CN1CCC(=C2c3ccccc3C=Cc3ccccc32)CC1 [cyproheptadine] | 0.43 |
| CC1(C)S[C@@H]2[C@H](NC(=O)[C@H](N)c3ccc(O)cc3)C(=O)N2[C@H]1C(=O)O [amoxilcillin] | 0.68 |
| CCN(Cc1ccncc1)C(=O)C(CO)c1ccccc1 (stereo not drawn) [tropicamid] | 0.86 |
| COc1ccc(CCN2CCC(Nc3nc4ccccc4n3Cc3ccc(F)cc3)CC2)cc1 [astemizol] | 0.61 |
| OCCOCCN1CCN(C2=Nc3ccccc3Sc3ccccc32)CC1 [quetiapine] | 0.68 |
